Target: Tyrosine-protein kinase ITK/TSK (Homo sapiens, UniProt Q08881)
Sequence (Q08881 whole entry): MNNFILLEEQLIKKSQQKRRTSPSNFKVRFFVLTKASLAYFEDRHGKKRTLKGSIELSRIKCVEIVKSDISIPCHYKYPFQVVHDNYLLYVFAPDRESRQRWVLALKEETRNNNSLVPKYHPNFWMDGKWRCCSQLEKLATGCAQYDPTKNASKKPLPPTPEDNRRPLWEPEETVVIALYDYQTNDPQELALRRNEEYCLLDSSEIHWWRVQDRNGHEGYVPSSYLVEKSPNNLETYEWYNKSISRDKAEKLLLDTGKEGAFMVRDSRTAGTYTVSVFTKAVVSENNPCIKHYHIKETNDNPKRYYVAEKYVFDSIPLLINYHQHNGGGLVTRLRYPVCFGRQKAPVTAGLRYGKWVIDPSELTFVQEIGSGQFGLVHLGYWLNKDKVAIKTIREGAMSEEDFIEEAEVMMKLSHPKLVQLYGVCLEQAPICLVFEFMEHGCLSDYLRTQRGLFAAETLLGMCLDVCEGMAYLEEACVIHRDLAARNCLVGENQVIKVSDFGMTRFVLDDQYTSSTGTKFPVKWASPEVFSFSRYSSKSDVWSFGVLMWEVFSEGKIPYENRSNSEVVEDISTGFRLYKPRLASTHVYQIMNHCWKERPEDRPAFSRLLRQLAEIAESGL
Test: Inhibition of recombinant GST-tagged full-length ITK expressed in baculovirus expression system after 30 mins by scintillation proximity assay
pIC50: −log10 of the molar value.
PARAMETER_MEASURED: pIC50

Some solved cases for reference:
MOLECULE	pIC50
Cc1ccc2cc(-c3n[nH]c4ccc(NC(=O)NCc5ccco5)cc34)[nH]c2c1	6.51
Cc1ccc2cc(-c3n[nH]c4ccc(NC5CCC5)cc34)[nH]c2c1	6.21

[P] COCC#Cc1ccc2cc(-c3n[nH]c4cccnc34)[nH]c2c1
[Q] Cc1ccc2cc(-c3n[nH]c4ccc(NC(=O)Nc5ccccc5)cc34)[nH]c2c1
[R] Cc1ccc2cc(-c3n[nH]c4ccc(NC5CCNC5)cc34)[nH]c2c1 (configuration not stated)
[S] Cc1ccc2cc(-c3n[nH]c4ccc(NC5CCN(Cc6ccccc6)CC5)cc34)[nH]c2c1
Order field: pIC50 | Direction: descending (largest first) Lab note: record answer as labels in requested order.
R, S, P, Q
(R: 7.96, S: 7.64, P: 6.55, Q: 6.14)
